test: small-molecule binders of probe aNOTCH2, primary screen, biochemical, small-molecule microarray, 635/667 nm fluorescence (AID 1121); settings: higher = more signal;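 further: score merges feature fluorescence read at 667 nm with its signal to noise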
Exercise: state measured composite z-score for each of the molecules provided.
Give bare numbers.

>  <molecule>
C=CCOC(=O)[C@H]1[C@@H]2C(=O)O[C@@H](c3ccccc3)[C@@H](c3ccccc3)N2[C@@H](c2ccc(OCCOC(=O)[C@@H]3C[C@@H]4C(=O)N[C@@H](CC(C)C)C(=O)N4[C@@H]3c3ccc(O)cc3)cc2)[C@]12C(=O)Nc1ccccc12

>  <resultValue>
-0.0631

$$$$
>  <molecule>
CC1CC/C=C\[C@H]2OC34C=CCN(Cc5ccccc5)C(=O)[C@H]3N(CCCO)C(=O)[C@@H]4C2C(=O)O1 (stereo partly drawn)

>  <resultValue>
-0.155

$$$$
>  <molecule>
CC(C)[Si](C#Cc1ccc(Oc2ccccc2)cc1)(O[Si](C#Cc1ccc(Oc2ccccc2)cc1)(C(C)C)C(C)C)C(C)C

>  <resultValue>
-0.037

$$$$
>  <molecule>
COC(=O)[C@@]1(Cc2ccc(OC)cc2)[C@H]2c3cc(C(=O)N(C)C)n(Cc4ccc(S(C)(=O)=O)cc4)c3C[C@H]2CN1C(=O)c1ccccc1

>  <resultValue>
-0.168

$$$$
>  <molecule>
CO[C@H]1O[C@H](CO)[C@@H](OC(=O)Nc2cccc(F)c2)[C@H](OC(=O)Nc2ccccc2)[C@@H]1OC(=O)Nc1ccccc1

>  <resultValue>
0.003

$$$$

Hi there! I need composite z-score for each item below, if you can.
1. C[C@@]1([C@@H](NC(=O)c2ccc(-c3ccccc3)cc2)c2ccc(Cl)cc2)C[C@H]1C1CCCCC1
2. COC(=O)c1c(CC[C@@H](CO)NC(=O)NCCn2cc(C3(O)CCCC3)nn2)oc(C(C)=O)c1C(=O)OC

1. -0.0527
2. -0.128

Hi there! I need composite z-score for each item below, if you can.
1. COC(=O)C(CC#Cc1ccc2c(c1)[C@]1(C(=O)N2)[C@H](C(=O)Nc2nc3ccccc3s2)[C@H]2C(=O)O[C@H](c3ccccc3)[C@H](c3ccccc3)N2[C@@H]1c1ccc(O)cc1)C(=O)OC
2. CC#CC(=O)Oc1ccccc1C=CC(=O)OCC
3. CN(C)CCCC[C@@H]1NC(=O)[C@H]2C[C@@H](C(=O)NCCCCCCN)[C@@H](c3ccc(O)cc3)N2C1=O
4. CN1C(=O)C2C=CC(C(O)c3ccco3)N(Nc3ccccc3)C2C1=O (stereo not drawn)
5. O=C1O[C@@H](c2ccccc2)[C@@H](c2ccccc2)N2[C@@H](c3ccccc3OCCO)[C@]3(C(=O)Nc4ccc(C#CC5=CCCCC5)cc43)[C@@H](C(=O)N3CCCCCCC3)[C@H]12
6. COc1ccc(/C=C/C=O)cc1
7. CC1(C)[C@@H]2CC(C(O)C3C=CC4C(=O)N(c5ccccc5)C(=O)C4N3Nc3ccc([N+](=O)[O-])cc3)=C[C@H]1C2 (stereo partly drawn)

[-0.0846, -0.118, 0.419, -0.0267, 1.08, -0.0468, -0.106]

Hi there! I need composite z-score for each item below, if you can.
1. O=C(OCc1ccccc1)C1=CCC2c3[nH]c4ccccc4c3C(=O)C1N2S(=O)(=O)c1ccccc1[N+](=O)[O-] (stereo not drawn)
2. CCCc1cc2c(n1Cc1cc(F)cc(F)c1)C(C)C1CN(C(=O)c3ccccc3)C(C)(C(=O)OC)C21 (stereo not drawn)

0.285
0.341

* * *

molecular target: NADPH oxidase 5 (Homo sapiens) (UniProt Q96PH1); test: NOX5-dependent H2O2 signal modulators, primary screen, NOX inhibitor project, cell-based, HEK293-NOX5, Amplex Red fluorescence (AID 1161); settings: HEK293-NOX5, ionomycin, 45 min, higher = more signal
Sequence (Q96PH1 whole entry, looked up): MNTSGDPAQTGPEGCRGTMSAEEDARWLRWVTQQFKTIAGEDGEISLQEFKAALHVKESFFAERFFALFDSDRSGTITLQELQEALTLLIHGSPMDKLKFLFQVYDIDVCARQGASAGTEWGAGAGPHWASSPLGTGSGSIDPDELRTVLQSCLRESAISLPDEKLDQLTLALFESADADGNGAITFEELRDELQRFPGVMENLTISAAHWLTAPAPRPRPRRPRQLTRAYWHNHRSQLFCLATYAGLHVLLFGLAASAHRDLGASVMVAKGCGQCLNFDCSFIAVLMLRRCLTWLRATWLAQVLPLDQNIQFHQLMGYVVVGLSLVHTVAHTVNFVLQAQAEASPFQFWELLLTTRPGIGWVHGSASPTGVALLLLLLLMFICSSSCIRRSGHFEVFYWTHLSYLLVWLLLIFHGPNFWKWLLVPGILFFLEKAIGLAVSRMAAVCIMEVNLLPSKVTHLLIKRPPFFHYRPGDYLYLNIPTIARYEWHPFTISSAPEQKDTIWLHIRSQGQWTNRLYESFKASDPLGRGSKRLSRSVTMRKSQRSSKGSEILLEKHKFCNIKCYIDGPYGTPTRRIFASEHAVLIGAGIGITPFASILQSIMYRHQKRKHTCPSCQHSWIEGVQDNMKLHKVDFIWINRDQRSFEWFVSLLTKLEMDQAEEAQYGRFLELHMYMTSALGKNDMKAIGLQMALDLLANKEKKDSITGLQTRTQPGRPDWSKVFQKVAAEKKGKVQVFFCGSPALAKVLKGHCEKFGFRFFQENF
Exercise: state measured z-score for each of the compounds provided.
Answers are plain numbers.

>  <compound>
COC(=O)c1c(CC[C@@H](CO)NC(=O)NCCn2cc(C3(O)CCCC3)nn2)oc(C(C)=O)c1C(=O)OC

>  <z-score>
-0.666

$$$$

Hi there! I need z-score for each item below, if you can.
1. Cc1ccc(S[C@]2(C(=O)NCCCN(C)C)CC(=O)N(Cc3cc(C(F)(F)F)cc(C(F)(F)F)c3)[C@@H]2c2ccc(CO)cc2I)cc1
2. C=CCNC(=O)[C@H]1[C@@H]2C(=O)O[C@@H](c3ccccc3)[C@@H](c3ccccc3)N2[C@@H](c2ccccc2OCCO)[C@]12C(=O)Nc1ccc(C#CCC(C(=O)OC)C(=O)OC)cc12
3. COCCOC(=O)N1C(=O)[C@@]2(c3cc(C#CCNC(N)=O)ccc31)[C@H](C(=O)N1CCN(c3ncccn3)CC1)[C@H]1C(=O)O[C@H](c3ccccc3)[C@H](c3ccccc3)N1[C@@H]2c1ccc(OCCO)cc1
4. COCCCNC(=O)[C@@]1(C)c2ccccc2C(=O)N(C(C)C)[C@H]1c1ccc(CO)cc1

[2.43, 1.5, -0.121, -0.249]

Hi there! I need z-score for each item below, if you can.
1. CC(C)C(O)C1C=CC2C(=O)NC(=O)C2N1Nc1ccc(Cl)cc1Cl (configuration not stated)
2. COc1ccc(C(O)C2C=CC3C(=O)N(Cc4ccccc4)C(=O)C3N2n2cnnc2)cc1OCc1ccccc1 (configuration not stated)

1. -3.83
2. 0.384

* * *

experiment: compound binding in COS7 lysate, probe aLAP1, primary screen, cell lysate, small-molecule microarray (AID 1124); conditions: probe aLAP1, fluorescence, higher = more signal;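 further: lysate comes from COS7 cells expressing LAP1 and is applied at 0.3 µg/mL; score merges spot fluorescence near 667 nm with signal-to-noise over triplicate slides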
reportedProperty: composite z-score
Answers are plain numbers.

>  <molecule>
C=CCN1C(=O)[C@@]2(Cc3ccccc31)N=C(c1ccc(OCCCO)cc1)O[C@H]2c1ccccc1

>  <composite z-score>
0.843

$$$$
>  <molecule>
C=C(CCCC)/C(=C/C[C@H](OC(C)=O)c1ccccc1OCCO)c1cc(C(=O)OC)ccc1OC

>  <composite z-score>
0.095

$$$$
>  <molecule>
COc1ccc(C#Cc2ccc3c(c2)[C@]2(C(=O)N3)[C@H](c3ccccc3OCCO)N3[C@H](c4ccccc4)[C@H](c4ccccc4)OC(=O)[C@H]3[C@@H]2C(=O)Nc2nc3ccccc3s2)cc1

>  <composite z-score>
0.0878

$$$$
>  <molecule>
CC#CC(=O)Oc1ccccc1C=CC(=O)OCC

>  <composite z-score>
-0.021

$$$$
>  <molecule>
O=C(c1ccccc1)N1Cc2ccccc2C[C@@]2(COC(c3ccc(OCCCO)cc3)=N2)C1=O

>  <composite z-score>
0.549

$$$$
>  <molecule>
COc1cc(COC(C)=O)ccc1OC(C)=O

>  <composite z-score>
-0.184

$$$$
>  <molecule>
COC(=O)C(CC#Cc1ccc2c(c1)[C@]1(C(=O)N2)[C@H](c2ccc(OCCO)cc2)N2[C@H](c3ccccc3)[C@H](c3ccccc3)OC(=O)[C@H]2[C@@H]1C(=O)Nc1nc2ccccc2s1)C(=O)OC

>  <composite z-score>
-0.065

$$$$
>  <molecule>
CC(C)=CCCC(C)=CC(O)C1C=CC2C(=O)N(C)C(=O)C2N1Nc1ccccc1 (stereo not given)

>  <composite z-score>
0.309

$$$$
>  <molecule>
COc1ccc(/C=C/C=O)cc1

>  <composite z-score>
0.0998

$$$$
>  <molecule>
COCCOC(=O)N1C(=O)[C@@]2(c3cc(C#CCC(C(=O)OC)C(=O)OC)ccc31)[C@H](C(=O)N1CCN(c3ncccn3)CC1)[C@H]1C(=O)O[C@H](c3ccccc3)[C@H](c3ccccc3)N1[C@@H]2c1ccccc1OCCO

>  <composite z-score>
0.698

$$$$

Hi there! I need composite z-score for each item below, if you can.
1. C=CCOC(=O)[C@@H]1[C@H]2C(=O)O[C@H](c3ccccc3)[C@H](c3ccccc3)N2[C@H](c2ccc(OCCOC(=O)[C@@H]3C[C@@H]4C(=O)NCC(=O)N4[C@@H]3c3ccc(O)cc3)cc2)[C@@]12C(=O)Nc1ccc(I)cc12
2. O[C@@H](Cc1ccccc1)[C@H]1C2C=CCCC=C2CN1Cc1cccc(Cl)c1 (stereo not given in full)
3. CN1C=C(C(=O)OCCS(C)(=O)=O)C(C(=O)OCCS(C)(=O)=O)=CC(c2ccc(CO)cc2)=CC1C1CC1 (stereo not given)
4. COc1ccc([Si](C)(C)[C@H]2[C@H](CCO)O[C@@]3(C(=O)N(Cc4ccc(N(C=O)c5ccccc5)cc4)c4ccccc43)[C@@H]2C)cc1

[-0.143, 0.536, 0.901, -0.33]

* * *

molecular target: Calmodulin-1 (Homo sapiens) (UniProt P0DP23); test: CALM1 binders on microarrays, EGTA buffer, profiling panel, biochemical, small-molecule microarray, Cy5-labelled CALM1 (AID 1111); conditions: Cy5-CALM1 binding fluorescence, higher = more signal;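 further: labelled calmodulin applied in Tris saline Tween buffer holding calcium plus EGTA and DTT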
Exercise: state measured composite z-score for each of the molecules provided.
Give bare numbers.

Hi there! I need composite z-score for each item below, if you can.
1. CC(C)C[C@@H]1NC(=O)[C@@H]2C[C@H](C(=O)O)[C@H](c3cccc(OCCO)c3)N2C1=O
2. C=C[C@H](CO[Si](CC)(CC)CC)N(Cc1ccc(OC(C)=O)c(OC)c1)S(=O)(=O)c1ccc(Br)cc1

[0.26, 1.41]

Hi there! I need composite z-score for each item below, if you can.
1. O=C1NC(=O)C2C1C=CC(C(O)c1cccs1)N2Nc1ccc(Cl)cc1Cl (centres undefined)
2. COc1ccc(CCNC(=O)[C@@H]2c3ccccc3C(=O)N(Cc3ccccc3Cl)[C@H]2c2ccc(CO)cc2)cc1

[0.0484, -0.0739]
